tested on: Calu-3 cells; test: Cellular tolerability test: TEER of Calu-3 monolayers; format: cell-based, human; conditions: dilution 1:5; in KRB
Label YES when TEER after 2 hours Mean [%] is at or above 70%; otherwise label NO.

>>> class_name("O=C1NS(=O)(=O)c2ccccc21.[Na]")
"NO"
>>> class_name("NC[C@H]1O[C@H](O[C@H]2[C@H](O)[C@@H](O[C@H]3O[C@H](CO)[C@@H](O)[C@H](N)[C@H]3O)[C@H](N)C[C@@H]2N)[C@H](N)C[C@@H]1O [Tobramycin (T100), Tobramycin, reference compound]")
"YES"
>>> class_name("C[C@@H]1[C@H](O)[C@@H](C)/C=C/C=C/C=C/C=C/C=C/C=C/C=C/[C@H](O[C@@H]2O[C@H](C)[C@@H](O)[C@H](N)[C@@H]2O)C[C@@H]2O[C@](O)(C[C@@H](O)C[C@@H](O)[C@H](O)CC[C@@H](O)C[C@@H](O)CC(=O)O[C@H]1C)C[C@H](O)[C@H]2C(=O)O [Amphotericin B, reference compound]")
"YES"

Could you now consider this next molecule?
Ask: # bool: TEER after 2 hours Mean [%] of O=C(O)CC(O)(CC(=O)O)C(=O)O >= 70%
Reply: NO

* * *

Tested on: Calu-3 cells
Assay: Cellular tolerability test: TEER of Calu-3 monolayers
Assay type: cell-based, human
Details: conc. (undiluted; stock concentration given with each formulation name); in KRB
Method: In addition to the physicochemical properties of drug formulations and their stability, either as solution or dispersed systems, it is helpful to investigate the cellular tolerability of such drug formulations in a cell culture test system. For this purpose the bronchial cell line Calu-3 was used as an in vitro model for toxicity assessment. […] TEER was determined in physiological Krebs Ringer buffer (KRB) for two hours after the application of the different formulations or excipients. […]
Assign TEER after 2 hours Mean [%] to each entry below.

Please review the following examples before continuing.
>>> observed_measurement("O=C1NS(=O)(=O)c2ccccc21.[Na]")
"55%"
>>> observed_measurement("O=C(O)CC(O)(CC(=O)O)C(=O)O")
"105%"

Give TEER after 2 hours Mean [%] for each listed item.
1. NC[C@H]1O[C@H](O[C@H]2[C@H](O)[C@@H](O[C@H]3O[C@H](CO)[C@@H](O)[C@H](N)[C@H]3O)[C@H](N)C[C@@H]2N)[C@H](N)C[C@@H]1O [Tobramycin (T100), Tobramycin, reference compound]
2. OC[C@H]1O[C@@H]2O[C@H]3[C@H](O)[C@@H](O)[C@@H](O[C@H]4[C@H](O)[C@@H](O)[C@@H](O[C@H]5[C@H](O)[C@@H](O)[C@@H](O[C@H]6[C@H](O)[C@@H](O)[C@@H](O[C@H]7[C@H](O)[C@@H](O)[C@@H](O[C@H]8[C@H](O)[C@@H](O)[C@@H](O[C@H]9[C@H](O)[C@@H](O)[C@@H](O[C@H]1[C@H](O)[C@H]2O)O[C@@H]9CO)O[C@@H]8CO)O[C@@H]7CO)O[C@@H]6CO)O[C@@H]5CO)O[C@@H]4CO)O[C@@H]3CO
3. O=C1O[C@H]([C@@H](O)CO)C([O-])=C1O.[Na+] [Sodium Ascorbate]
4. C[C@@H]1[C@H](O)[C@@H](C)/C=C/C=C/C=C/C=C/C=C/C=C/C=C/[C@H](O[C@@H]2O[C@H](C)[C@@H](O)[C@H](N)[C@@H]2O)C[C@@H]2O[C@](O)(C[C@@H](O)C[C@@H](O)[C@H](O)CC[C@@H](O)C[C@@H](O)CC(=O)O[C@H]1C)C[C@H](O)[C@H]2C(=O)O [Amphotericin B, reference compound]

Reply:
94%
61%
22%
108%

Attribution: patent US20090025713A1
